The following binders are shown together with reported EC50 of luciferase activity, TF-1/Stat3-Luc reporter cells values.
# study system: T1, IL10 receptor (IL10 receptor subunit alpha IL10Ra and beta subunit IL10Rb) on Ramos/STAT3-Luc and … (UniProt Q13651 22-578; Q08334 20-325, limits assumed)
# T1 sequence (looked up) 1: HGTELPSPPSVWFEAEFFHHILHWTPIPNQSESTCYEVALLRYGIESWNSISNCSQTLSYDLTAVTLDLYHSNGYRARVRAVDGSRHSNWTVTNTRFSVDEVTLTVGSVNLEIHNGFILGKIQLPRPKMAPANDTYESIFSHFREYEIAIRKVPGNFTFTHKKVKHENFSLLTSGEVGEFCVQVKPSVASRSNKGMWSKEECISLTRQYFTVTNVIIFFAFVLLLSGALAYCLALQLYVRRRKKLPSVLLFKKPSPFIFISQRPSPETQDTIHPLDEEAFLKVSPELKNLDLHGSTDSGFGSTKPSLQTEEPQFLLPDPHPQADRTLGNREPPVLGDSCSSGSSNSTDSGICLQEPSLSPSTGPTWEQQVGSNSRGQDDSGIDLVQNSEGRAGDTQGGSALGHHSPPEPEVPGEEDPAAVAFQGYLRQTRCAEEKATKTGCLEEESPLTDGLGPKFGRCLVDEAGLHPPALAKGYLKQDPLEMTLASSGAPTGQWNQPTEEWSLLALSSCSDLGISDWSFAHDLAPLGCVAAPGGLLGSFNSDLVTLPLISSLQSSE
# T1 sequence (looked up) 2: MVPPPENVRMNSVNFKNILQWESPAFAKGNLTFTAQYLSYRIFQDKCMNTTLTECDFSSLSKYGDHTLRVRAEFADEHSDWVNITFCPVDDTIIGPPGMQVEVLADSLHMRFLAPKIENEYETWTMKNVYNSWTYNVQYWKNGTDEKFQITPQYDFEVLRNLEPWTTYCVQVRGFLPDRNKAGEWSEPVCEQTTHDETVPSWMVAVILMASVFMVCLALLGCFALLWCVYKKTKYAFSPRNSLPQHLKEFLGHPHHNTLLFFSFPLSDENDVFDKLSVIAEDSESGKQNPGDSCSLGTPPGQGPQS
# test: cell-based or functional assay
Unit nM implied. Number only.

Example entries and their recorded answers appear below.
INSERT INTO assay_data (binder, assay_result) VALUES
  ('IL10M7 (hIL10-1XG4S-Fc; Fc is IgG4s) (Fc fusion) SPGQGTQSENSCTHFPGNLPNMLRDLRDAFSRVKTFFQMKDQLDNLLLKESLLEDFKGYLGCQALSEMIQFYLEEVMPQAENQDPDIKAHVNSLGENLKTLRLRLRRCHRFLPCENKSKAVEQVKNAFNKLQEKGIYKAMSEFDIFINYIEAYMTMKIRNGGGGSESKYGPPCPPCPAPPVAGPSVFLFPPKPKDTLMISRTPEVTCVVVDVSQEDPEVQFNWYVDGVEVHNAKTKPREEQFNSTYRVVSVLTVLHQDWLNGKEYKCKVSNKGLPSSIEKTISKAKGQPREPQVYTLPPSQEEMTKNQVSLTCLVKGFYPSDIAVEWESNGQPENNYKTTPPVLDSDGSFFLYSRLTVDKSRWQEGNVFSCSVMHEALHNHYTQKSLSLSLGK', 0.319),
  ('IL10M5 (Fc-1XG4S-hIL10; Fc is IgG4s) (Fc fusion) ESKYGPPCPPCPAPPVAGPSVFLFPPKPKDTLMISRTPEVTCVVVDVSQEDPEVQFNWYVDGVEVHNAKTKPREEQFNSTYRVVSVLTVLHQDWLNGKEYKCKVSNKGLPSSIEKTISKAKGQPREPQVYTLPPSQEEMTKNQVSLTCLVKGFYPSDIAVEWESNGQPENNYKTTPPVLDSDGSFFLYSRLTVDKSRWQEGNVFSCSVMHEALHNHYTQKSLSLSLGKGGGGSSPGQGTQSENSCTHFPGNLPNMLRDLRDAFSRVKTFFQMKDQLDNLLLKESLLEDFKGYLGCQALSEMIQFYLEEVMPQAENQDPDIKAHVNSLGENLKTLRLRLRRCHRFLPCENKSKAVEQVKNAFNKLQEKGIYKAMSEFDIFINYIEAYMTMKIRN', 0.146);

Now examine the next entry.
Please supply the value of reported EC50 of luciferase activity, TF-1/Stat3-Luc reporter cells for the item IL10M8 (hIL10-Fc; Fc is IgG4s) (Fc fusion) SPGQGTQSENSCTHFPGNLPNMLRDLRDAFSRVKTFFQMKDQLDNLLLKESLLEDFKGYLGCQALSEMIQFYLEEVMPQAENQDPDIKAHVNSLGENLKTLRLRLRRCHRFLPCENKSKAVEQVKNAFNKLQEKGIYKAMSEFDIFINYIEAYMTMKIRNESKYGPPCPPCPAPPVAGPSVFLFPPKPKDTLMISRTPEVTCVVVDVSQEDPEVQFNWYVDGVEVHNAKTKPREEQFNSTYRVVSVLTVLHQDWLNGKEYKCKVSNKGLPSSIEKTISKAKGQPREPQVYTLPPSQEEMTKNQVSLTCLVKGFYPSDIAVEWESNGQPENNYKTTPPVLDSDGSFFLYSRLTVDKSRWQEGNVFSCSVMHEALHNHYTQKSLSLSLGK 0.484
